// data source = patent US20150105252A1

System: barnyardgrass
Test: Test A preemergence
Type: in vivo, Echinochloa crus-galli
Settings: preemergence, 125 g ai/ha; visual injury, 0 to 100 scale, approx. 10 days
Source text: […]
In this section we review reported Barnyardgrass plant response rating values for a set of molecules.
// keep it numeric: no unit symbol after the value

Q: Which Barnyardgrass plant response rating reading was recorded for the molecule CCc1cc(-c2ccc(Br)cc2)nn1Cc1ccnc(C(F)(F)F)c1 ?
Ans: 0

Q: Which Barnyardgrass plant response rating reading was recorded for the molecule CCOc1cc(C(=O)NC2CC2)nn1Cc1ccnc(OC(F)F)c1 ?
Ans: 90

Q: Fill blank: measured Barnyardgrass plant response rating of the molecule Cc1cc(C(=O)NCC(F)(F)C(F)(F)F)nn1Cc1cccc(C(F)(F)F)c1 is ____.
Ans: 0

Q: // returns reported Barnyardgrass plant response rating for input CCc1cc(C(=O)NC2CC2)nn1Cc1nc(C(F)(F)F)no1
Ans: 10

Q: Barnyardgrass plant response rating lookup needed for CCCCc1cc(C(=O)NC2CC2)nn1Cc1ccnc(C(F)(F)F)c1 , thanks.
Ans: 0

----------
System: crabgrass, large
Assay: Test A preemergence
Assay type: in vivo, Digitaria sanguinalis
Details: preemergence, 125 g ai/ha, visual injury approx. 10 days after treatment
The reader will find reported Crabgrass, Large plant response rating (0 to 100 scale) values listed item by item below.
Give the figure by itself; no unit, no explanation.

Example compounds with recorded Crabgrass, Large plant response rating (0 to 100 scale):
>>> measured("CCCCc1cc(C(=O)NC2CC2)nn1Cc1ccnc(C(F)(F)F)c1")
80
>>> measured("CCc1cc(-c2ccc(C(F)(F)F)cc2)nn1C(=O)c1ccnc(C(F)(F)F)c1")
0
>>> measured("CCc1cc(C(=O)NCC2CC2)nn1Cc1ccnc(C(F)(F)F)c1")
100

Q: Tell me the measured Crabgrass, Large plant response rating (0 to 100 scale) of CCc1cc(C(=O)NC2CC2)nn1Cc1nc(C(F)(F)F)no1 , please.
Ans: 50

Q: Need Crabgrass, Large plant response rating (0 to 100 scale) of CCc1cc(C(=O)NC2CC2)nn1Oc1cccc(C(F)(F)F)c1 , thanks.
Ans: 50

----------
System: oat, wild
Assay: Test C postemergence
Assay type: in vivo, Avena fatua
Settings: postemergence, 62 g ai/ha; scale 0 to 100
VALUE_KIND: Oat, Wild plant response rating
I'd appreciate a reply containing only the number, no unit.

Consider the reported Oat, Wild plant response rating for these molecules:
>>> measured("CCCc1cc(C(=O)NOCC)nn1Cc1ccnc(C(F)(F)F)c1")
10
>>> measured("CCc1cc(C(=O)NCC(F)(F)F)nn1Cc1cc(OC(F)F)nn1C")
0

Q: Please report the recorded Oat, Wild plant response rating for CCOc1cc(C(=O)NC2CC2)nn1Cc1ccnc(OC(F)F)c1 .
Ans: 5

Q: Dear colleague, I am looking for the recorded Oat, Wild plant response rating of the following molecule: CCCc1cc(C(=O)NCC(F)(F)F)nn1Cc1cc(C(F)(F)F)nn1C
Ans: 20

Q: Which Oat, Wild plant response rating value belongs to CCc1cc(C(=O)NC(C)C)nn1Cc1ccnc(C(F)(F)F)c1 ?
Ans: 10

Q: Using the record for CCOc1cc(C(=O)NC(C)C)nn1Cc1ccnc(C(F)(F)F)c1 , report its Oat, Wild plant response rating.
Ans: 10

Q: Query (molecule): CCc1cc(C(=O)NCC2CC2)nn1Cc1ccnc(C(F)(F)F)c1 ; field requested: Oat, Wild plant response rating
Ans: 10

Q: I have this molecule here, CCCc1cc(C(=O)NCC)nn1Cc1cc(C(F)(F)F)nn1C , and I need its recorded Oat, Wild plant response rating.
Ans: 30

Q: Sample CCNC(=O)c1cc(CC)n(Cc2ccnc(C(F)(F)F)c2)n1 — what was its Oat, Wild plant response rating?
Ans: 5
